src = patent US20230322924A1

target: T1, Human CD33 full length, expressed on HEK293F cells (human, UniProt P20138 18-364); assay: flow cytometry, HEK293F cells expressing human CD33
T1 construct: HEK293F cells transduced with lentivirus containing full length human CD33; also called huCD33
T1 sequence (P20138 18-364 limits assumed): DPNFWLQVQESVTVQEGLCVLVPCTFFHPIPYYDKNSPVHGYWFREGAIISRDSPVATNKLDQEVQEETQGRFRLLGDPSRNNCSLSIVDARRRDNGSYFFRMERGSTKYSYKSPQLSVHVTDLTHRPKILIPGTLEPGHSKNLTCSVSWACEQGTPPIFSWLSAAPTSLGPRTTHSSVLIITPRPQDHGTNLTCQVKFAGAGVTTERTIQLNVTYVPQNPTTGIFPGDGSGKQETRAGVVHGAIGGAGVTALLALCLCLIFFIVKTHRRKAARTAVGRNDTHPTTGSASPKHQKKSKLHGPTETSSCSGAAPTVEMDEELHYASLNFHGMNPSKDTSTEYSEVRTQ

Binder: C33B80 (antibody, IgG1, V domains shown, huIgG1 F405L; also called C33F85; C33H76/C33L39) VH: EVQLLESGGGLVQPGGSLRLSCAASGFTFNYAMSWVRQAPGKGLEWVSAISGSGGSTYYADSVKGRFTISRDISKNTLYLQMNSLRAEDTAVYYCARTYNSGYYDGDFDYWGQGTLVTVSS VL: QSALTQPASVSGSPGQSIPISSTGTSSDDGKNNIVSWYQQHPGKAPKLMIYKDSKRPSGVSNRFSGSKSGNTASLTISGLQADDEADYHCCSYAGASNHVVFGGGTKLTVL
MFI at 60 nM mAb, MFI: 5800
--
Binder: C33B48 (antibody, IgG1, V domains shown, huIgG1 F405L; also called C33F53; C33H80/C33L73) VH: QVQLVQSGSELRKPGASVKVSCKASGYTFTNYAMNWVRQAPGQGLEWMGWINTNTGNPTYAQGFTGRFVFSLDTSVSSAYLQISSLKAEDTAMYYCATDRDRGTDYWGQGTLVTVSS VL: QSALTQPASVSGSPGQSITISCTGTSSDVGDYNYVSWYQQHPGKVPKLMIYDVSNRPSGVSNRFSGSMSGNTASLTISGLQAEDEADYYCSSYSSSSALEVFGGGTKLTVL
MFI at 60 nM mAb, MFI: 401000
--
Binder: C33B82 (antibody, IgG1, V domains shown, huIgG1 F405L; also called C33F87; C33H78/C33L57) VH: QVQLVESGGGVVQPGRSLRLSCAASGFTFSSYGMHWVRQAPGKGLEWVAVISYDGSNKYYADSVKGRFTISRDNSKNTLFLQMNSLRAEDTAVYYCAKDFRYFDWLPPDSSSYYGMDVWGQGTTVTVSS VL: SYELTQPPSVSVSPGQTASITCSGDELGNKYACWYQQKPGQSPVVVVYQDRKRPSGIPERFSGSNFGNTATLTISGTQAMDEADYYCQAWDSSTVVFGGGTKLTVL
MFI at 60 nM mAb, MFI: 189000
--
Binder: C33B88 (antibody, IgG1, V domains shown, huIgG1 F405L; also called C33F93; C33H88/C33L61) VH: QVQLVQSGSELKKPGASVKVSCKASGYTLTRSAMNWVRQAPGQGLEWMGWINTNTGNPTYAQGFTGRFVFSLDTSVNTAYLLISSLKTEDTAVYYCASDILPGYHEDYWGQGTLVTVSS VL: QSALTQPASVSGSPGQSITISCTGINSDVGSYDLVSWYQQHPGKAPKLLIYDGSERPSGVFGRFSGSKSDNTTSLTISGLQAEDEAAYYCCSYEVTTTYVVFGGGTKLTVL
MFI at 60 nM mAb, MFI: 393000
--
Binder: C33B122 (antibody, IgG1, V domains shown, huIgG1 F405L; also called C33F127; C33H92/C33L30) VH: QLQLQESGPGLVKPSETLSLTCTVSGGSIRSSSYYWGWIRQPPGKGPEWIGSIYSSGNTYYNPSLKSRVTISVDTSKNQFSLKLISMTAADTAVFYCARLAATIVVPAARYFDCWGQGTLVTVSS VL: SYELTQPPSVSVSPGQTVSISCSGDRLGDKYACWYQQKPGQSPVLVIYQDSKRPSGIPERFSGSNSGNTATLTISGTQAMDEADYYCQAWDSSSYVFGTGTKVTVL
MFI at 60 nM mAb, MFI: 259000
